Values compiled from paper PMC12682127.

- Target entity: UniProt:O06543
- Sequence (O06543 whole entry): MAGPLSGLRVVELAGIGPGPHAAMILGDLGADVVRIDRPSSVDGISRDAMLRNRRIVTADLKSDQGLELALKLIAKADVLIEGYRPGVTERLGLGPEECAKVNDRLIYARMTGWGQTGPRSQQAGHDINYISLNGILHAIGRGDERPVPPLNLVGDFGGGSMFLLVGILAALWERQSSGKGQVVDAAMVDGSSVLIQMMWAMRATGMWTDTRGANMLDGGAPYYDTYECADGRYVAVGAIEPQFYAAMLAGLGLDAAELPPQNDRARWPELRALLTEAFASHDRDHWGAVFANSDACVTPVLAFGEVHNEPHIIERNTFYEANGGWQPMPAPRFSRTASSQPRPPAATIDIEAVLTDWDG
- Assay procedure: MCR inhibition, colorimetric assay, dose-response curves
- Format: biochemical
- Design: made in house
- Condition parameters: repeat 1; 4-parameter logistic fit coefficient
Recorded endpoint: Hillslope

For COc1cccc(COc2cccc(SC(C)C(=O)SCCNC(=O)CCNC(=O)C(O)C(C)(C)COP(=O)(O)OP(=O)(O)OCC3OC(n4cnc5c(N)ncnc54)C(O)C3OP(=O)(O)O)c2)c1 (racemic) the molecule record lists Hillslope as -0.6534

For CC(Sc1ccc(OCCc2ccccc2)cc1)C(=O)SCCNC(=O)CCNC(=O)C(O)C(C)(C)COP(=O)(O)OP(=O)(O)OCC1OC(n2cnc3c(N)ncnc32)C(O)C1OP(=O)(O)O (racemic) the molecule record lists Hillslope as -0.9669

For CC(C)COc1ccc(SC(C)C(=O)SCCNC(=O)CCNC(=O)C(O)C(C)(C)COP(=O)(O)OP(=O)(O)OCC2OC(n3cnc4c(N)ncnc43)C(O)C2OP(=O)(O)O)cc1 (racemic) the molecule record lists Hillslope as -0.7177

For COc1cccc(CCOc2cccc(SC(C)C(=O)SCCNC(=O)CCNC(=O)C(O)C(C)(C)COP(=O)(O)OP(=O)(O)OCC3OC(n4cnc5c(N)ncnc54)C(O)C3OP(=O)(O)O)c2)c1 (racemic) the molecule record lists Hillslope as -1.0666

For CCCCCOc1ccc(SC(C)C(=O)SCCNC(=O)CCNC(=O)C(O)C(C)(C)COP(=O)(O)OP(=O)(O)OCC2OC(n3cnc4c(N)ncnc43)C(O)C2OP(=O)(O)O)cc1 (racemic) the molecule record lists Hillslope as -0.6352

For COc1cccc(CCOc2ccc(SC(C)C(=O)SCCNC(=O)CCNC(=O)C(O)C(C)(C)COP(=O)(O)OP(=O)(O)OCC3OC(n4cnc5c(N)ncnc54)C(O)C3OP(=O)(O)O)cc2)c1 (racemic) the molecule record lists Hillslope as -0.8553

For CC(Sc1cccc(OCCc2ccccc2)c1)C(=O)SCCNC(=O)CCNC(=O)C(O)C(C)(C)COP(=O)(O)OP(=O)(O)OCC1OC(n2cnc3c(N)ncnc32)C(O)C1OP(=O)(O)O (racemic) the molecule record lists Hillslope as -0.6564

For CC(Sc1cccc(OCCc2cccc(C(F)(F)F)c2)c1)C(=O)SCCNC(=O)CCNC(=O)C(O)C(C)(C)COP(=O)(O)OP(=O)(O)OCC1OC(n2cnc3c(N)ncnc32)C(O)C1OP(=O)(O)O (racemic) the molecule record lists Hillslope as -0.6535

For CC(Sc1cccc(OCc2ccccc2)c1)C(=O)SCCNC(=O)CCNC(=O)C(O)C(C)(C)COP(=O)(O)OP(=O)(O)OCC1OC(n2cnc3c(N)ncnc32)C(O)C1OP(=O)(O)O (racemic) the molecule record lists Hillslope as -0.7954

For CC(C)COc1cccc(SC(C)C(=O)SCCNC(=O)CCNC(=O)C(O)C(C)(C)COP(=O)(O)OP(=O)(O)OCC2OC(n3cnc4c(N)ncnc43)C(O)C2OP(=O)(O)O)c1 (racemic) the molecule record lists Hillslope as -0.7207

For CC(Sc1ccc(OCc2ccccc2)cc1)C(=O)SCCNC(=O)CCNC(=O)C(O)C(C)(C)COP(=O)(O)OP(=O)(O)OCC1OC(n2cnc3c(N)ncnc32)C(O)C1OP(=O)(O)O (racemic) the molecule record lists Hillslope as -0.8760

For COc1cccc(COc2ccc(SC(C)C(=O)SCCNC(=O)CCNC(=O)C(O)C(C)(C)COP(=O)(O)OP(=O)(O)OCC3OC(n4cnc5c(N)ncnc54)C(O)C3OP(=O)(O)O)cc2)c1 (racemic) the molecule record lists Hillslope as -1.2477

For CC(Sc1ccc(OCCc2cccc(C(F)(F)F)c2)cc1)C(=O)SCCNC(=O)CCNC(=O)C(O)C(C)(C)COP(=O)(O)OP(=O)(O)OCC1OC(n2cnc3c(N)ncnc32)C(O)C1OP(=O)(O)O (racemic) the molecule record lists Hillslope as -1.1570
